Where do the numbers come from? From patent US10961236B2.

Target: recombinant human PI3Kα (6-His(p110-p85α)) (Homo sapiens (Human), UniProt P42336)
Sequence (P42336 whole entry): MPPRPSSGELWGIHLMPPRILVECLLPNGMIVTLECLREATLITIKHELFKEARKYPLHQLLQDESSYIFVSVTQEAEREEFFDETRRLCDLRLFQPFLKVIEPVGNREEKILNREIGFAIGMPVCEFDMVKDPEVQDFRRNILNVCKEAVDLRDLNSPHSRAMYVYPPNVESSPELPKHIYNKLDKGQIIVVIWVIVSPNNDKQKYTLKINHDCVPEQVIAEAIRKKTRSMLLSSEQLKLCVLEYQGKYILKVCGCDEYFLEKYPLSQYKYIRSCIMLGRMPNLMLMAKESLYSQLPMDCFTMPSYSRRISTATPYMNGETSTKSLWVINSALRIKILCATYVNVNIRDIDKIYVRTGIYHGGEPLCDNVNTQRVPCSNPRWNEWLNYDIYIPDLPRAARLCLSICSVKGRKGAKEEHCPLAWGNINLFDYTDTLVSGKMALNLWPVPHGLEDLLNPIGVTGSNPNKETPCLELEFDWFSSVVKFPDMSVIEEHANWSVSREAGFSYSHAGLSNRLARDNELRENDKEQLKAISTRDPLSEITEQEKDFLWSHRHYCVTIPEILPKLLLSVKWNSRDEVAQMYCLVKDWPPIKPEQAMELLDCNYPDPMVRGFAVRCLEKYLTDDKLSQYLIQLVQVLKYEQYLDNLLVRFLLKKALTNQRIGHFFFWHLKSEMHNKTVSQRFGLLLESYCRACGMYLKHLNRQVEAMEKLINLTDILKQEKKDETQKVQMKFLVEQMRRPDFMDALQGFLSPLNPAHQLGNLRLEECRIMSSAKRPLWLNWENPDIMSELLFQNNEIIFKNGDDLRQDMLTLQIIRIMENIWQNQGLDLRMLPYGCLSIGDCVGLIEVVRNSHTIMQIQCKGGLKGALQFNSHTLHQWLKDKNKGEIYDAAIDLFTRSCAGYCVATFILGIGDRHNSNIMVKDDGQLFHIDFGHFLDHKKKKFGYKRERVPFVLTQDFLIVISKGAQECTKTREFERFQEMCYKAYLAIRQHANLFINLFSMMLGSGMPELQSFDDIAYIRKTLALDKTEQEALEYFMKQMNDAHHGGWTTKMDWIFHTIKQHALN
Sequence (P27986 whole entry partner): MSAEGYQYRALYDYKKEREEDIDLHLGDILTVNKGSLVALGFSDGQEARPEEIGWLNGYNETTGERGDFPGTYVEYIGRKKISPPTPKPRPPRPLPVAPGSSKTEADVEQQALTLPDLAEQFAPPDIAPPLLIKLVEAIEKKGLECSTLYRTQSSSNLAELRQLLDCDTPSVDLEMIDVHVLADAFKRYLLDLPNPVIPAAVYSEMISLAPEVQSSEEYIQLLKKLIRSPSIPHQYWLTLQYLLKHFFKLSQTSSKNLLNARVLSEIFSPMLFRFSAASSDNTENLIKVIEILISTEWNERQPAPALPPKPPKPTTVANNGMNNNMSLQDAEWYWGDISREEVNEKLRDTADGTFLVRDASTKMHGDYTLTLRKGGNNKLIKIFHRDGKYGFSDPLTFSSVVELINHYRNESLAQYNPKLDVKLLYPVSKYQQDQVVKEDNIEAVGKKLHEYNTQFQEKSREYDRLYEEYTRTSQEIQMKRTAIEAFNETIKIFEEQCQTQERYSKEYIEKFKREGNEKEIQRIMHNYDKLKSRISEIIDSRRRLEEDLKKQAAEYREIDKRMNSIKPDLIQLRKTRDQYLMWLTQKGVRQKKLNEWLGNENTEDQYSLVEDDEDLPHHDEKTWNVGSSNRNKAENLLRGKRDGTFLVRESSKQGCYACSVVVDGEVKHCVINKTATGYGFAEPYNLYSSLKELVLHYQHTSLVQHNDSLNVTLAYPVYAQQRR
Assay: Enzymatic activity assay for recombinant human PI3Kα (ADP-Glo)
Details: 1.2 nM PI3Kα, 20 μM ATP, 80 μM DiC8-PIP2, ADP-Glo
Measured pIC50 by item
Reminder that pIC50 means the negative base-10 logarithm of the concentration expressed in mol/L.

INSERT INTO results (molecule, number) VALUES
  ('Cc1nc(Nc2cccc(N3CCNC3=O)n2)sc1-c1cc2c(c(S(=O)(=O)NC(C)C)c1)C(=O)N([C@@H](C)C(F)(F)F)C2 [Example 30]', 7.13),
  ('Cc1nc(Nc2cccc(N3CCCC3=O)n2)sc1-c1cc2c(c(S(=O)(=O)NC3COC3)c1)C(=O)N([C@@H](C)C1CC1)C2 [Example 32]', 6.85),
  ('CNS(=O)(=O)c1cc(-c2sc(Nc3cccc(N(C)C(=O)COC)n3)nc2C)cc2c1C(=O)N([C@@H](C)C1CC1)C2 [Example 14]', 7.10),
  ('CNS(=O)(=O)c1cc(-c2sc(Nc3cccc(N4CCOCC4=O)n3)nc2C)cc2c1C(=O)N([C@@H](C)C1CC1)C2 [Example 20]', 7.43),
  ('Cc1nc(Nc2cccc(N3CCOCC3=O)n2)sc1-c1cc2c(c(S(C)(=O)=O)c1)C(=O)N([C@@H](C)C1CC1)C2 [Example 7]', 7.24);

Next:
Endpoint output: pIC50 of CNS(=O)(=O)c1cc(-c2sc(Nc3cccc(N4CCN(CCO)CC4=O)n3)nc2C)cc2c1C(=O)N([C@@H](C)C1CC1)C2 [Example 59] . Value?
7.57
